The measurements presented in this section are drawn from patent US5270302A.

Target: Type-A CCK receptor (Cavia porcellus, UniProt Q63931)
Construct: Cortical and pancreatic membranes were prepared as described; from tissue; host or cells: guinea pig pancreas membranes
Sequence (Q63931 whole entry): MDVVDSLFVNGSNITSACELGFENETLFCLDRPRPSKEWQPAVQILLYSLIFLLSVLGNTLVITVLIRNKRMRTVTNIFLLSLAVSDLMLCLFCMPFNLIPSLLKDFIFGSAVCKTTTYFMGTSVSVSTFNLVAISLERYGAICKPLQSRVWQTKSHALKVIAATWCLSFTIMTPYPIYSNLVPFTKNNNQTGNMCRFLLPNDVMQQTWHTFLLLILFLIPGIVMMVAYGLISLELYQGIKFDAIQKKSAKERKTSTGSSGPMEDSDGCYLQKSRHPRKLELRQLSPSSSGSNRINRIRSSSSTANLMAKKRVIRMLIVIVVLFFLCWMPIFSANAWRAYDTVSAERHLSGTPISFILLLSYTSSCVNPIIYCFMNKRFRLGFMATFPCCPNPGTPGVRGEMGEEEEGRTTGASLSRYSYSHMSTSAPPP
Assay: Radioligand binding of [125I]BH-CCK-8 in guinea pig pancreatic membrane preparations
Conditions: IC50 (nM) 125I-BH-CCK-8 Type-A receptor, guinea pig pancreatic membranes, 37° C., 150 min
*1 amine or outer side, *2 acyl side, *3 side chain or, on linkers, in order; H or OH if unused. Where a SMILES comes first, the peptide text is derived from it. Side-chain parts run from the residue outwards. [ ]: non-standard residue; d: D form. The star is where a group is joined. NMeD = CN[C@@H](CC(=O)O)C(=O)O; NH(2-Me-phenyl) = Cc1ccccc1N*; CO = O=C([*:1])[*:2]; Bz = O=C(c1ccccc1)*
reported-endpoint: IC50 (nM)
Give your result in nM as a bare value.

compound | unit-of-measurement | value-observed
Cc1ccccc1NC(=O)NCCCC[C@H](NC(=O)[C@H](Cc1c[nH]c2ccccc12)NC(=O)c1ccccc1)C(=O)N(C)[C@@H](CC(=O)O)C(=O)N[C@@H](Cc1ccccc1)C(N)=O [Example 90] (Bz-WK([CO-NH(2-Me-phenyl)])[NMeD]F-NH2) | nM | 2.7

QUERY: Give IC50 for Cc1ccccc1NC(=O)NCCCC[C@H](NC(=O)C1Cc2c[nH]c3cccc(c23)CC(=O)N1)C(=O)N[C@@H](CC(=O)O)C(=O)N(C)[C@@H](Cc1ccccc1)C(N)=O (some centres unmarked) tested on Type-A CCK receptor (Cavia porcellus, UniProt Q63931).
RESULT: 6.3

====

Target: Type-B CCK receptor (Cavia porcellus)
Construct: Cortical and pancreatic membranes were prepared as described; from tissue; host or cells: guinea pig cerebral cortex membranes
Sequence (H0VZC5 1-426): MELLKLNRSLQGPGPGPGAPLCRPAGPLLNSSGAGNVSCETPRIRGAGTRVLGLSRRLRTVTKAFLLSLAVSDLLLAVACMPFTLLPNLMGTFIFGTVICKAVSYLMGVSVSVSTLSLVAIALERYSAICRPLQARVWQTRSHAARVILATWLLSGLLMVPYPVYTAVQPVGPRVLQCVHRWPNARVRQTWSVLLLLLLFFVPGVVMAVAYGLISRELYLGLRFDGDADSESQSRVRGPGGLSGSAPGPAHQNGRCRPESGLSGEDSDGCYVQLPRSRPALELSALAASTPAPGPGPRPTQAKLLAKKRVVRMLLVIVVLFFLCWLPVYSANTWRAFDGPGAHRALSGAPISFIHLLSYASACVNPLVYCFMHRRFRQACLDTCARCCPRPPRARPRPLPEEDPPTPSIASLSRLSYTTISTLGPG
Assay: Radioligand binding of [125I]BH-CCK-8 in guinea pig cerebral cortical membrane preparations
Conditions: IC50 (nM) 125I-BH-CCK-8 Type-B receptor, guinea pig cortical membranes, 30° C., 150 minutes
*1 amine or outer side, *2 acyl side, *3 side chain or, on linkers, in order; H or OH if unused. Where a SMILES comes first, the peptide text is derived from it. Side-chain parts run from the residue outwards. [ ]: non-standard residue; d: D form. The star is where a group is joined. ξ: configuration not given here. NMeW = CN[C@@H](Cc1c[nH]c2ccccc12)C(=O)O; ξαMeW = CC(N)(Cc1c[nH]c2ccccc12)C(=O)O; 1Nal = N[C@@H](Cc1cccc2ccccc12)C(=O)O; Butanoyl(3,3-Me2) = CC(C)(C)CC(=O)*; Isobutyloxycarbonyl = CC(C)COC(=O)*; NMeF = CN[C@@H](Cc1ccccc1)C(=O)O; NMeD = CN[C@@H](CC(=O)O)C(=O)O; NH(2-Me-phenyl) = Cc1ccccc1N*; Boc = CC(C)(C)OC(=O)*; CO = O=C([*:1])[*:2]; Bz = O=C(c1ccccc1)*
reported-endpoint: IC50 (nM)
Give the quantity in nM, number only.

Consider the following illustrative entries.
compound | IC50, nM
CN[C@@H](Cc1c[nH]c2ccccc12)C(=O)N[C@@H](CCCCNC(=O)Nc1ccccc1C)C(=O)N(C)[C@@H](CC(=O)O)C(=O)N[C@@H](Cc1cccc2ccccc12)C(N)=O [Example 100] (H-[NMeW]K([CO-NH(2-Me-phenyl)])[NMeD][1Nal]-NH2) | 12000
CN[C@@H](Cc1c[nH]c2ccccc12)C(=O)N[C@@H](CCCCNC(=O)Nc1ccccc1C)C(=O)N[C@@H](CC(=O)O)C(=O)N(C)[C@@H](Cc1ccccc1)C(N)=O [Example 101] (H-[NMeW]K([CO-NH(2-Me-phenyl)])D[NMeF]-NH2) | 12000
Cc1ccccc1NC(=O)NCCCC[C@H](NC(=O)[C@H](Cc1c[nH]c2ccccc12)NC(=O)OCC(C)C)C(=O)N[C@@H](CC(=O)O)C(=O)N(C)[C@@H](Cc1ccccc1)C(N)=O [Example 77] (Isobutyloxycarbonyl-WK([CO-NH(2-Me-phenyl)])D[NMeF]-NH2) | 6500

QUERY: Note IC50 for the compound shown: Cc1ccccc1NC(=O)NCCCC[C@H](NC(=O)[C@H](Cc1c[nH]c2ccccc12)NC(=O)CC(C)(C)C)C(=O)N[C@@H](CC(=O)O)C(=O)N(C)[C@@H](Cc1ccccc1)C(N)=O [Example 87] ({Butanoyl(3,3-Me2)}-WK([CO-NH(2-Me-phenyl)])D[NMeF]-NH2)
RESULT: 8400

QUERY: Identify measured IC50 corresponding to Cc1ccccc1NC(=O)NCCCC[C@H](NC(=O)C(C)(Cc1c[nH]c2ccccc12)NC(=O)OC(C)(C)C)C(=O)N[C@@H](CC(=O)O)C(=O)N[C@@H](Cc1ccccc1)C(N)=O (stereo partly drawn) [Example 96] (Boc-[ξαMeW]K([CO-NH(2-Me-phenyl)])DF-NH2)
RESULT: 9300

QUERY: Specify reported IC50 for the compound shown: Cc1ccccc1NC(=O)NCCCC[C@H](NC(=O)[C@H](Cc1c[nH]c2ccccc12)NC(=O)c1ccccc1)C(=O)N[C@@H](CC(=O)O)C(=O)N(C)[C@@H](Cc1ccccc1)C(N)=O [Example 89] (Bz-WK([CO-NH(2-Me-phenyl)])D[NMeF]-NH2)
RESULT: 4600
